assay: 24 hour mouse pharmacokinetics; type: in vivo, B6SJLF1/J mice; conditions: B6SJLF1/J, plasma, PO 10 mg/kg, male
Readout Name: Cmax (ng/mL)
Please state the figure in ng/mL; there is no need to write the unit.

Query: // returns reported Cmax for input Cn1c(C(=O)NCc2ccccc2F)cc2ccc(-c3cn[nH]c3)nc21
Result: 1040

* * *

test: Kinetic solubility in PBS pH 7.4; type: physicochemical; conditions: aqueous buffer, kinetic from dmso stock, PBS pH 7.4, 25° C.
Measured solubility kinetic at 2 h, listed per entry.
// note: answer is a bare numeric in µM

Query: I am curious: what solubility kinetic at 2 h value has been reported for CC(=O)[C@H]1CC[C@H]2[C@@H]3CCC4=CC(=O)CC[C@]4(C)[C@H]3CC[C@]12C [Progesterone, reference compound] ?
Result: 13.3

Others:
Query: # solubility kinetic at 2 h lookup, item Cn1c(C(=O)NCc2ccccc2F)cc2ccc(-c3cn[nH]c3)nc21
Result: 0.64

* * *

target: PRKX (Homo sapiens (Human), UniProt P51817)
Sequence (P51817 whole entry): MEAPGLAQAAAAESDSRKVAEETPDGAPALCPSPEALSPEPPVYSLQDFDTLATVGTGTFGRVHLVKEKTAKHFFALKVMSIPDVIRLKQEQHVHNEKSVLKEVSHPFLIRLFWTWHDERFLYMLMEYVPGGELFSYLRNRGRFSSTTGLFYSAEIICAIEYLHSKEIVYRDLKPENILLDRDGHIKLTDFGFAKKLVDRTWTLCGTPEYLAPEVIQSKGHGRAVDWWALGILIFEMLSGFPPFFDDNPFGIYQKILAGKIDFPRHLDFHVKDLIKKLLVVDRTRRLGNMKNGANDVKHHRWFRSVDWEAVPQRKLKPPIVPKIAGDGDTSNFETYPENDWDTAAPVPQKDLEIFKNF
Readout Name: IC50 (nM)
A number alone suffices; assume nM.

Reference set (2 entries):
Query: Name the reported IC50 value associated with the compound Cn1c(C(=O)NCc2ccccc2F)cc2ccc(-c3cn[nH]c3)nc21 [Compound 1]
Result: 31.4

Query: Record: COc1cccc(CNC(=O)c2cc3ccc(-c4cn[nH]c4)nc3[nH]2)c1 [Comparator 6, reference compound]
Result: 165

Now examine the next entry.
Query: Any idea what IC50 was measured for Cc1[nH]ncc1-c1ccc2cc(C(=O)NCc3c(Cl)cccc3OC3COC3)[nH]c2n1 [Comparator 3, reference compound] ?
Result: 376

* * *

experiment: 24 hour mouse pharmacokinetics; format: in vivo, B6SJLF1/J mice; details: B6SJLF1/J, plasma, PO 100 mg/kg, male
Readout Name: AUC(0-t) (ng·h/mL)
All answers are understood in ng·h/mL, so give the number only.

Query: Please report the recorded AUC(0-t) for Cn1c(C(=O)NCc2ccccc2F)cc2ccc(-c3cn[nH]c3)nc21 .
Result: 44100

* * *

Test: 24 hour mouse pharmacokinetics
Assay type: in vivo, B6SJLF1/J mice
Settings: B6SJLF1/J, plasma, PO 10 mg/kg, male
Procedure: Groups 2, 3, 4, 6, and 8: Test article was dissolved in a minimal amount of DMSO (Groups 2, 4, 6, 8: 40-50 μL, Group 3: 100 μL), 0.5% methylcellulose was added to final volume, then solution was sonicated for 2 minutes. Group 7: Test article was dissolved in 100 μL DMSO, saline was added to final volume, then solution was sonicated for 2 minutes. Groups 1, 5: The test article was administered as a single dose via slow bolus intravenous administration into a lateral tail vein, with a 27G needle. […]
Readout Name: AUC(0-inf)
Param answer (str): number followed by unit.

Query: Name the reported AUC(0-inf) value associated with the compound Cn1c(C(=O)NCc2ccccc2F)cc2ccc(-c3cn[nH]c3)nc21
Result: 5750 ng·h/mL

* * *

assay: 24 hour mouse pharmacokinetics; assay type: in vivo, B6SJLF1/J mice; settings: B6SJLF1/J, plasma, PO 100 mg/kg, male
Readout Name: Tmax (h)
Give your result in h as a bare value.

Query: I'd like to know its Tmax. The compound in question is Cn1c(C(=O)NCc2ccccc2F)cc2ccc(-c3cn[nH]c3)nc21
Result: 8

* * *

assay: 24 hour mouse pharmacokinetics; assay type: in vivo, B6SJLF1/J mice; conditions: B6SJLF1/J, plasma, IV 3 mg/kg, male
Readout Name: Cmax (ng/mL)
Hi! Could you send only the number? It should be in ng/mL, unit omitted.

Query: What value of measured Cmax is listed for Cn1c(C(=O)NCc2ccccc2F)cc2ccc(-c3cn[nH]c3)nc21 [Compound 1] ?
Result: 12200

* * *

assay: 24 hour rat pharmacokinetics; assay type: in vivo, Sprague-dawley rats; conditions: Sprague-Dawley, in vivo, IV 3 mg/kg, male
Readout Name: Cmax (ng/mL)
Report the figure in ng/mL without appending any unit label.

Query: What Cmax value was documented for this compound, Cn1c(C(=O)NCc2ccccc2F)cc2ccc(-c3cn[nH]c3)nc21 ?
Result: 5540

* * *

assay: 24 hour rat pharmacokinetics; format: in vivo, Sprague-dawley rats; settings: Sprague-Dawley, in vivo, IV 3 mg/kg, male
Readout Name: half-life

Query: Suppose we examine the compound Cn1c(C(=O)NCc2ccccc2F)cc2ccc(-c3cn[nH]c3)nc21 [Compound 1] ; what half-life value has been reported?
Result: 5.33 h

* * *

target: ROCK1 (Homo sapiens (Human)); assay: ROCK1 inhibition assay (HotSpot kit, 33P-ATP); assay type: biochemical; settings: Table 2B; 10 μM ATP; Compound 1 is geometric mean of multiple experiments
Sequence (Q13464 whole entry): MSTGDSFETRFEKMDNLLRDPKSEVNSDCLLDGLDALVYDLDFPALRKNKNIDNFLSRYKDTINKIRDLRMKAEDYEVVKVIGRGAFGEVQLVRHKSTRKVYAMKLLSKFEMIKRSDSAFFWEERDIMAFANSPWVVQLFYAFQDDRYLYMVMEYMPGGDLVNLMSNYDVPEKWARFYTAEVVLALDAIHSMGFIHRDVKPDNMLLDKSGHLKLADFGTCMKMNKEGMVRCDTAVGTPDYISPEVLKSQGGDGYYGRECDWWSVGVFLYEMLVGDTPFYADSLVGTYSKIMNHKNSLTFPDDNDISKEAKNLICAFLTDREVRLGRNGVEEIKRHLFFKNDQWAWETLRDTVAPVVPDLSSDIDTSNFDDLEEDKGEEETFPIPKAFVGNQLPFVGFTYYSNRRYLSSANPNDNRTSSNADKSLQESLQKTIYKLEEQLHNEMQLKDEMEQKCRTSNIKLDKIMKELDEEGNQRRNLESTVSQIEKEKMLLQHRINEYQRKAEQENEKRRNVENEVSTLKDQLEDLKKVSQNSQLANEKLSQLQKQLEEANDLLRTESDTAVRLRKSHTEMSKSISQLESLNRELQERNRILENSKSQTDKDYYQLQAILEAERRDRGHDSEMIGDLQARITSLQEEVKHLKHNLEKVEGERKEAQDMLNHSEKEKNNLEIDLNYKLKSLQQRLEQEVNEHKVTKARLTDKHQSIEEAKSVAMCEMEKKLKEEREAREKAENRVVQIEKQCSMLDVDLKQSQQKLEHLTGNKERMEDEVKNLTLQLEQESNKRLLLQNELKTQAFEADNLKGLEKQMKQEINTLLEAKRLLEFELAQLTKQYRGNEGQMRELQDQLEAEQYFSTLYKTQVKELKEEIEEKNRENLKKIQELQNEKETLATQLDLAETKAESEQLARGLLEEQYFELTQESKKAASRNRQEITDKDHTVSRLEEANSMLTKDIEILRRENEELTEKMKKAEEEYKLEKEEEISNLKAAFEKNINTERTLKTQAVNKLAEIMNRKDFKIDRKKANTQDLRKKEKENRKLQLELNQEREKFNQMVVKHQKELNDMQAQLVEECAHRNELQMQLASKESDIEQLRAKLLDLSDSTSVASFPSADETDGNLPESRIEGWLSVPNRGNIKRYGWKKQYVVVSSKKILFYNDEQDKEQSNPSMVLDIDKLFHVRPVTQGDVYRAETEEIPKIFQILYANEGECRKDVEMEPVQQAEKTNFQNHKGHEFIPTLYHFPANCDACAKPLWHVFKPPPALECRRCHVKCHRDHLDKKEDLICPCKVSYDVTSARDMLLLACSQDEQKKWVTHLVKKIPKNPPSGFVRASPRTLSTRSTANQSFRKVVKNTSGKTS
Readout Name: pIC50
Scale: pIC50 equals -log10([C]), with [C] in mol/L.

Query: Consider the molecule COc1cccc(CNC(=O)c2cc3ccc(-c4cn[nH]c4)nc3[nH]2)c1 [Comparator 6, reference compound] and give its measured pIC50.
Result: 7.99

Turning now to a further record.
Query: Please give the measured pIC50 for this molecule: Cn1c(C(=O)NCc2ccccc2F)cc2ccc(-c3cn[nH]c3)nc21 [Compound 1]
Result: 7.52

* * *

assay: 24 hour mouse pharmacokinetics; type: in vivo, B6SJLF1/J mice; details: B6SJLF1/J, plasma, PO 10 mg/kg, female
Readout Name: AUC(0-t) (ng·h/mL)
API: value field is a number in ng·h/mL; no unit string.

Query: Give the measured AUC(0-t) of Cn1c(C(=O)NCc2ccccc2F)cc2ccc(-c3cn[nH]c3)nc21 .
Result: 5670

* * *

test: 24 hour mouse pharmacokinetics; assay type: in vivo, B6SJLF1/J mice; details: B6SJLF1/J, plasma, IV 3 mg/kg, male
Readout Name: AUC(0-t) (ng·h/mL)
Respond with the bare value in ng·h/mL.

Query: Which measured AUC(0-t) value corresponds to Cn1c(C(=O)NCc2ccccc2F)cc2ccc(-c3cn[nH]c3)nc21 ?
Result: 10100

* * *

experiment: 24 hour mouse pharmacokinetics; type: in vivo, B6SJLF1/J mice; conditions: B6SJLF1/J, plasma, IV 3 mg/kg, male
Readout Name: AUC(0-inf)
Write the figure, then the unit, nothing else.

Query: Entry under review: Cn1c(C(=O)NCc2ccccc2F)cc2ccc(-c3cn[nH]c3)nc21 . Reported AUC(0-inf)?
Result: 10200 ng·h/mL

* * *

molecular target: PKA (Homo sapiens (Human), UniProt P17612)
Readout Name: pIC50
For clarity, pIC50 is expressed as the negative log10 of concentration in mol/L.

Query: State the recorded pIC50 for this entry: Cc1[nH]ncc1-c1ccc2cc(C(=O)NCc3c(Cl)cccc3OC3COC3)[nH]c2n1 [Comparator 3, reference compound]
Result: 5.85

New cases:
Query: Which value of pIC50 has been reported for Cn1c(C(=O)NCc2ccccc2F)cc2ccc(-c3cn[nH]c3)nc21 in the records?
Result: 6.62

* * *

assay: 24 hour mouse pharmacokinetics; assay type: in vivo, B6SJLF1/J mice; settings: B6SJLF1/J, plasma, PO 10 mg/kg, male
Readout Name: half-life (h)
# number only, unit h dropped from output

Query: Reported half-life, molecule Cn1c(C(=O)NCc2ccccc2F)cc2ccc(-c3cn[nH]c3)nc21 [Compound 1] : ____
Result: 2.72

* * *

molecular target: ROCK2 (Homo sapiens (Human), UniProt O75116); test: ROCK2 inhibition assay (HotSpot kit, 33P-ATP); format: biochemical; settings: Table 2B; 10 μM ATP; Compound 1 is geometric mean of multiple experiments
Sequence (O75116 whole entry): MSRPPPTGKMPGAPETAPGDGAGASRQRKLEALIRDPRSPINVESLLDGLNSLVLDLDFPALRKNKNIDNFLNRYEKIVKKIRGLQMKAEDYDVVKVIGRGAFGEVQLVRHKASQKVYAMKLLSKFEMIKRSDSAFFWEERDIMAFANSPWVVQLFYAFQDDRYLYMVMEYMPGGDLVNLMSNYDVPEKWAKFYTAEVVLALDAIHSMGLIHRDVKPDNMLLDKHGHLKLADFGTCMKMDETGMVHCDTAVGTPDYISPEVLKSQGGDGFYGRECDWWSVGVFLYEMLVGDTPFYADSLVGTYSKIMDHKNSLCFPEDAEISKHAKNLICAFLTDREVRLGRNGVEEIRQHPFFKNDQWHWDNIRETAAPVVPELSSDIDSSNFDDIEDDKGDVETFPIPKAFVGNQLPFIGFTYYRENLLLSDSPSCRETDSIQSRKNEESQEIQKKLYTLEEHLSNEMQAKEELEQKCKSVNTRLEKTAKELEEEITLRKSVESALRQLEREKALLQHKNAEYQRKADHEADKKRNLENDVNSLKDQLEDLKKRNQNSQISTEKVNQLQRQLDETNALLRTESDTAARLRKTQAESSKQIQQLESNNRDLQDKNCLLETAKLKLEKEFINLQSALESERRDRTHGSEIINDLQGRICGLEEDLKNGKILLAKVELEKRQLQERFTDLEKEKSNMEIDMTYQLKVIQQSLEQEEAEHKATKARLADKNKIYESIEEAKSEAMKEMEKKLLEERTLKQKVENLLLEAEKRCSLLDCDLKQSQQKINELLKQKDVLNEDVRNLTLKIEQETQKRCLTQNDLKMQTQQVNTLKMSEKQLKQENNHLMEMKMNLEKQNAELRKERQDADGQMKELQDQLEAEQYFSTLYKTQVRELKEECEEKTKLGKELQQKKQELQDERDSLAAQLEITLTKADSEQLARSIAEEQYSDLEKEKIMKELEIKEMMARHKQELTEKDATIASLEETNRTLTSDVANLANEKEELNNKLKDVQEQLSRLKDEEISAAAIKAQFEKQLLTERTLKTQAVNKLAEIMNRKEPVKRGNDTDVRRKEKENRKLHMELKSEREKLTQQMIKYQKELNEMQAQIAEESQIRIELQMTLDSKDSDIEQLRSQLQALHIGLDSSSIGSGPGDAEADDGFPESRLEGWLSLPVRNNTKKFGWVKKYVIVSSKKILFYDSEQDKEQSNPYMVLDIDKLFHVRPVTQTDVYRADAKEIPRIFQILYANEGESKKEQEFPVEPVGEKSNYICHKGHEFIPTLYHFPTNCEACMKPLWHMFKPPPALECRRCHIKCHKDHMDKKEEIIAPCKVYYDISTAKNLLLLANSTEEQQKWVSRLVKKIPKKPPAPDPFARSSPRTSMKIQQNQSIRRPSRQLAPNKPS
Readout Name: IC50 (nM)
The reply should be a number in nM, with the unit left off.

Query: Form: Entry = COc1cccc(CNC(=O)c2cc3ccc(-c4cn[nH]c4)nc3[nH]2)c1 [Comparator 6, reference compound] | System = ROCK2 (Homo sapiens (Human), UniProt O75116) | IC50 = ____
Result: 0.96

Query: Also Cn1c(C(=O)NCc2ccccc2F)cc2ccc(-c3cn[nH]c3)nc21 [Compound 1] , if possible.
Result: 2.7

# next compound below
Query: Request body: readout IC50, system ROCK2 (Homo sapiens (Human), UniProt O75116), query O=C(NCc1ccccc1F)c1cc2ccc(-c3cn[nH]c3C(F)(F)F)nc2[nH]1 [Compound 11] . Return the value.
Result: 1370

* * *

assay: 24 hour rat pharmacokinetics; assay type: in vivo, Sprague-dawley rats; details: Sprague-Dawley, plasma, PO 10 mg/kg, male
Readout Name: AUC(0-inf) (ng·h/mL)
Expressed in ng·h/mL, but write only the number.

Query: Any idea what its AUC(0-inf) is? The compound is Cn1c(C(=O)NCc2ccccc2F)cc2ccc(-c3cn[nH]c3)nc21
Result: 2660

* * *

Assay: 24 hour mouse pharmacokinetics
Format: in vivo, B6SJLF1/J mice
Conditions: B6SJLF1/J, plasma, PO 100 mg/kg, male
Method: Groups 2, 3, 4, 6, and 8: Test article was dissolved in a minimal amount of DMSO (Groups 2, 4, 6, 8: 40-50 μL, Group 3: 100 μL), 0.5% methylcellulose was added to final volume, then solution was sonicated for 2 minutes. Group 7: Test article was dissolved in 100 μL DMSO, saline was added to final volume, then solution was sonicated for 2 minutes. Groups 1, 5: The test article was administered as a single dose via slow bolus intravenous administration into a lateral tail vein, with a 27G needle. […]
Readout Name: Cmax (ng/mL)
Write the value in ng/mL as a bare number.

Query: Item Cn1c(C(=O)NCc2ccccc2F)cc2ccc(-c3cn[nH]c3)nc21 has what recorded Cmax?
Result: 4070
